Target: Ephrin type-B receptor 3 (Homo sapiens) (UniProt P54753);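 note: values are mean percent inhibition of EPHB3 from the GSK PKIS screening panel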
Sequence (whole entry): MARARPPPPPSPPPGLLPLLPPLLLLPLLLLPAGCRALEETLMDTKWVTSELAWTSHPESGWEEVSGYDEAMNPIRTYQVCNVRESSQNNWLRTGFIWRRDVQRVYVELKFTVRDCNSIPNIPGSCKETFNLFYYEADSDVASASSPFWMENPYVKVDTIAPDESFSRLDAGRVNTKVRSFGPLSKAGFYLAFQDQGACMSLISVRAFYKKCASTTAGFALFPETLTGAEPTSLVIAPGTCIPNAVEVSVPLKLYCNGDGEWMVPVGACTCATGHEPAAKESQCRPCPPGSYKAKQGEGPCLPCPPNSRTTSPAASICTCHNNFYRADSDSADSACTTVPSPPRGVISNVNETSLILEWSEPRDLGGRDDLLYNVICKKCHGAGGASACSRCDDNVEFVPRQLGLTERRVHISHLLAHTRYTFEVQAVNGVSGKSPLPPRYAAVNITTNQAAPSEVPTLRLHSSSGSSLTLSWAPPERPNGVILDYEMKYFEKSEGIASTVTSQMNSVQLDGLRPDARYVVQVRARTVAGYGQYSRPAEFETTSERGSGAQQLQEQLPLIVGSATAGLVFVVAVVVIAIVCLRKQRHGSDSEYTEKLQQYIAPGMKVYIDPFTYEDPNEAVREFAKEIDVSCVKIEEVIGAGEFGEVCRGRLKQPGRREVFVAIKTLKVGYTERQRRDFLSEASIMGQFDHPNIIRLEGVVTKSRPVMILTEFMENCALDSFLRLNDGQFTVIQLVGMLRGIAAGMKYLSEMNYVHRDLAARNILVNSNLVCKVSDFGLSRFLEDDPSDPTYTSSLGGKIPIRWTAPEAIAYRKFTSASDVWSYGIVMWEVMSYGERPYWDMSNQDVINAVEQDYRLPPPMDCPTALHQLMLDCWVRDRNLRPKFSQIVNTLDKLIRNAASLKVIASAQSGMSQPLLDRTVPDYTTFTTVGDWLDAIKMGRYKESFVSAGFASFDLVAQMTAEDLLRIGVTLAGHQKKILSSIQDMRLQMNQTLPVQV
Conditions: at 1 µM
PROPERTY: inhibition (%)
Entry rule: numbers only, all in %.

See these solved cases before continuing.
{"SMILES_REPR": "FC(F)(F)c1cccc(Nc2nccc(-c3cnn4nc(-c5ccccc5)ccc34)n2)c1", "EXPERIMENTAL_SYSTEM": "Ephrin type-B receptor 3 (Homo sapiens) (UniProt P54753)", "READING_UNIT": "%", "inhibition": 2.32}
{"SMILES_REPR": "NC(=O)Cc1ccccc1Oc1nccc(-c2c(-c3ccc(F)cc3)ncn2C2CCNCC2)n1", "EXPERIMENTAL_SYSTEM": "Ephrin type-B receptor 3 (Homo sapiens) (UniProt P54753)", "READING_UNIT": "%", "inhibition": 4.05}
{"SMILES_REPR": "Fc1ccc(-c2ncn(C3CCNCC3)c2-c2ccnc(Oc3ccc(Oc4ccccc4)cc3)n2)cc1", "EXPERIMENTAL_SYSTEM": "Ephrin type-B receptor 3 (Homo sapiens) (UniProt P54753)", "READING_UNIT": "%", "inhibition": 2.76}
{"SMILES_REPR": "COc1cccc(/C=N/Nc2ncnc3c2cnn3-c2cccc(OC)c2)c1", "EXPERIMENTAL_SYSTEM": "Ephrin type-B receptor 3 (Homo sapiens) (UniProt P54753)", "READING_UNIT": "%", "inhibition": 3.68}
{"SMILES_REPR": "CN(C)c1ccc2c(c1)/C(=C/Nc1ccc(S(N)(=O)=O)cc1)C(=O)N2", "EXPERIMENTAL_SYSTEM": "Ephrin type-B receptor 3 (Homo sapiens) (UniProt P54753)", "READING_UNIT": "%", "inhibition": 1.83}

API: the following record is the query input.
Query :: Quick one: give measured inhibition for O=C1Nc2ccc(I)cc2C1=Cc1cc(Br)c(O)c(Br)c1
Result :: 5.23

----------
molecular target: Serine/threonine-protein kinase Nek9 (Homo sapiens); details: at 1 µM;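 note: each value is a mean percent inhibition of NEK9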
inhibition overview
Your answer is read as %, so omit the unit and give the number.

{"SMILES_REPR": "CCC(=O)Nc1ccc(C)c(-c2ccc(C(=O)NCC3CC3)cc2)c1", "VALUE_REPORTED": 10.2}
{"SMILES_REPR": "Fc1ccc(-c2ncn(C3CCNCC3)c2-c2ccnc(Oc3ccc(F)c(F)c3)n2)cc1", "VALUE_REPORTED": 6.01}

Query :: Tell me measured inhibition for Fc1ccc(-c2c(-c3ccncc3)nc3n2CCS3)cc1 please.
Result :: 4.81

Query :: Dear colleague, please send me the reported inhibition for NS(=O)(=O)c1ccc(N/N=C2\C(=O)Nc3ccc(C(=O)NCCCn4ccnc4)cc32)cc1 when you can.
Result :: 19

Query :: Fill in inhibition for record COc1cc(Nc2ncc3c(C)nc(-c4cccc(C(F)(F)F)c4)n3n2)cc(OC)c1OC
Result :: 86.1

----------
target: Platelet-derived growth factor receptor beta (Homo sapiens); details: at 1 µM;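 note: each value is a mean percent inhibition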
PROPERTY: inhibition
// return the numeric value with its unit appended

Worked set:
{"SMILES_REPR": "Fc1ccc(-c2ncn(C3CCNCC3)c2-c2ccnc(Oc3ccc(Oc4ccccc4)cc3)n2)cc1", "inhibition": "3.75%"}
{"SMILES_REPR": "COc1cc2ncn(-c3cc(OCCc4ccccc4)c(C(N)=O)s3)c2cc1OC", "inhibition": "49.9%"}
{"SMILES_REPR": "Clc1ccc(CNc2nccc(-c3cnn4ncccc34)n2)cc1", "inhibition": "13.8%"}
{"SMILES_REPR": "O=C(Nc1n[nH]c2cc(-c3ccccc3)ccc12)C1CC1", "inhibition": "13.3%"}
{"SMILES_REPR": "Fc1ccc(-c2nc3n(c2-c2ccncc2)CCS3)cc1", "inhibition": "8.35%"}
{"SMILES_REPR": "Cc1ccc(C(=O)NC(C)C)cc1-c1ccc(C(=O)NCC2CC2)cc1", "inhibition": "2.4%"}
{"SMILES_REPR": "FC(F)(F)c1cccc(Nc2nccc(-c3cnn4nc(-c5ccccc5)ccc34)n2)c1", "inhibition": "37.1%"}
{"SMILES_REPR": "COC(=O)Nc1nc2ccc(Sc3ccc(NC(=O)Nc4cc(C(F)(F)F)ccc4F)cc3)cc2[nH]1", "inhibition": "16.5%"}

Query :: Hello, please tell me recorded inhibition for this one: CN(C)CCCNc1nccc(-c2c(-c3ccc(F)cc3)nn3cc(C(F)(F)F)ccc23)n1
Result :: 14.1%

Query :: Read the entry C[C@@H](Oc1cc(-n2cnc3ccc(OCC4CCN(C)CC4)cc32)sc1C(N)=O)c1ccccc1Cl and write its reported inhibition.
Result :: 84.7%

Query :: Retrieve inhibition measured for NC(=O)c1cc(-c2ccc(F)cc2)cc(-c2ccncc2)c1N and print it.
Result :: 5.05%

Query :: Return inhibition (reported value) for this compound: COc1ccc2cc(-c3c(-c4ccncc4)nc(-c4ccc(S(C)(=O)=O)cc4C)n3C)ccc2c1
Result :: 13.2%

Query :: Using the record for NC(=O)c1ccc(Oc2nccc(-c3c(-c4ccc(F)cc4)ncn3C3CCNCC3)n2)cc1 , state its measured inhibition.
Result :: 6.41%

Query :: Provide inhibition value for the following compound: C#Cc1cccc(Nc2ncnc3ccc(OCCCCNCCS(C)(=O)=O)cc23)c1
Result :: 20.5%

Query :: Please indicate inhibition recorded for CCN(CC)Cc1ccc(Nc2nccc(-c3cnn4ncccc34)n2)cc1
Result :: 71.8%

Query :: Please indicate inhibition recorded for CS(=O)(=O)CCNCc1cc(-c2cc3c(Nc4ccc(OCc5cccc(F)c5)c(Cl)c4)ncnc3s2)cs1
Result :: 11.2%

Query :: Read the entry COc1cc(Nc2ncc3c(C)nc(-c4cccc(C(F)(F)F)c4)n3n2)cc(OC)c1OC and write its reported inhibition.
Result :: 38%

Query :: Tell me inhibition reported for COc1ccc(C2=C(N3CCc4ccccc43)C(=O)NC2=O)cc1
Result :: 12.1%

Query :: Give a short answer stating reported inhibition for COc1cccc(/C=N/Nc2ncnc3c2cnn3-c2cccc(OC)c2)c1 .
Result :: 11%

Query :: // fetch inhibition given entry O=C1NC(=O)C(c2cccc(Cl)c2)=C1Nc1ccc(Cl)c(C(=O)O)c1
Result :: 8.9%

----------
target: Inhibitor of nuclear factor kappa-B kinase subunit beta (Homo sapiens) (UniProt O14920); conditions: at 1 µM;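 note: reported as mean inhibition, from the GSK PKIS screening set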
Sequence (O14920 whole entry): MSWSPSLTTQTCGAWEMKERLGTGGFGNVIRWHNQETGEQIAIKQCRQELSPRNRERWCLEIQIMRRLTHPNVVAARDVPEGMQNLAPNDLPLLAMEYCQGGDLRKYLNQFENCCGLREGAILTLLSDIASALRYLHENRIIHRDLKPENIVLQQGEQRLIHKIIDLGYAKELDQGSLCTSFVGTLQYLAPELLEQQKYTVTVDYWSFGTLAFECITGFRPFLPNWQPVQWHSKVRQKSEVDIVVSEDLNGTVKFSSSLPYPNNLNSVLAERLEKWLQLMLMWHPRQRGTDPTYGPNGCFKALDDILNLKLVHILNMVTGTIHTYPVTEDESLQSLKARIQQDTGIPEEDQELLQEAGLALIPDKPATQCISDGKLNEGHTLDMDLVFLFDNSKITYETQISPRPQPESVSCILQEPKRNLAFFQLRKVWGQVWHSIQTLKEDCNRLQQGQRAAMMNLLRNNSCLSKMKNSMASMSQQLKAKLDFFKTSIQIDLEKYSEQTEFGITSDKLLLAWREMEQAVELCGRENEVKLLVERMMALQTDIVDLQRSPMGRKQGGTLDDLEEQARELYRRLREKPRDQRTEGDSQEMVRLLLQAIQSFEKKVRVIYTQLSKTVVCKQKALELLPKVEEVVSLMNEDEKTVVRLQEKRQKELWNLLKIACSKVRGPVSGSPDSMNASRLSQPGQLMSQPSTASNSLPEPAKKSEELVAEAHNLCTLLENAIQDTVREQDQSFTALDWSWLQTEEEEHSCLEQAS
PROPERTY: inhibition
Answer format reminder: number followed by unit.

Some entries whose results are on file:
{"SMILES_REPR": "O=C(Nc1n[nH]c2cc(-c3cc(F)ccc3F)ccc12)C1CC1", "EXPERIMENTAL_SYSTEM": "Inhibitor of nuclear factor kappa-B kinase subunit beta (Homo sapiens) (UniProt O14920)", "VALUE_REPORTED": "5.11%"}
{"SMILES_REPR": "N#Cc1ccc(Oc2nccc(-c3c(-c4ccc(F)cc4)ncn3C3CCNCC3)n2)cc1", "EXPERIMENTAL_SYSTEM": "Inhibitor of nuclear factor kappa-B kinase subunit beta (Homo sapiens) (UniProt O14920)", "VALUE_REPORTED": "5.99%"}

Query :: For Inhibitor of nuclear factor kappa-B kinase subunit beta (Homo sapiens) (UniProt O14920), give inhibition of the listed molecule: Fc1ccc(-c2ncn(C3CCNCC3)c2-c2ccnc(Oc3ccc(F)c(F)c3)n2)cc1
Result :: 5.72%

Data provenance: ChEMBL document CHEMBL1961873
